// provenance: ChEMBL document CHEMBL3988442

Target: Proteasome subunit beta (Trypanosoma cruzi)
Sequence (whole entry): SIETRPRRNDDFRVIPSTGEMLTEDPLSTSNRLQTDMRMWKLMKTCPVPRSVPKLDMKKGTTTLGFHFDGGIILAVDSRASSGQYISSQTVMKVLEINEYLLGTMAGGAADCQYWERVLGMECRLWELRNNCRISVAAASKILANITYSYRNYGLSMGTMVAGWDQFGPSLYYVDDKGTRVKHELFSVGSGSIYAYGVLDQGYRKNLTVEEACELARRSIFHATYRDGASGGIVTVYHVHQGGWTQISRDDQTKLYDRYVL
Test: Trypanosoma cruzi proteasome chymotrypsin-like activity (TcProtChymo) assay.
Format: functional
Design: scale not given: in the data most compounds retested in dose-response had high values
Settings: 9.37 µM
OUTCOME_MEASURE: Percent Effect (%)
Answers are plain numbers, in %.

# map each molecule to its Percent Effect
1. CN(C)Cc1nn(C)c2c1CCN(S(=O)(=O)c1cccs1)C2
2. O=C(NCc1cncc2c1CCN(Cc1cccs1)C2)C1CC1
3. CCN(CC)Cc1cn2c(n1)CN(C(=O)c1cnccn1)CC2

-- reply
5.57
21.2
19.9

State the recorded Percent Effect for every item in the following list.
1. COCCOc1ccc(NC(=O)C2CC(=O)N(C)C2)cn1 (centres undefined)
2. Cn1ncc2c(=O)[nH]c(CN3CCCC3c3cccs3)nc21 (centres undefined)
3. Cc1ccc2c(ccn2CCC(=O)O)c1
4. Cc1cc(C)n(C2CCCN(C(=O)c3cnc4onc(C)c4c3)C2)n1 (centres undefined)
5. Cc1cnn(CC2CCCN2Cc2nc3ccccc3n2C)c1 (centres undefined)
6. Cc1cc(F)ccc1CNCCn1cccn1
7. Cc1cc2nc(SCC(=O)N3CCCC3)n(-c3ccccc3)c(=O)c2[nH]1
8. CN(C(=O)C1CCCCC1)[C@@H]1CCC[C@@H](N2CCOCC2)[C@@H]1O

-- reply
[1.06, 5.32, -2.83, 4.77, -1.23, 8.95, 19.6, 6.86]

Field: Percent Effect. Fill in for each record below.
1. CCc1noc(C(C)N2CCN(Cc3ncc(C(C)(C)C)o3)CC2)n1 (centres undefined)
2. O=C(O)C1(Cc2cc(-c3ccc(F)cc3F)no2)CCOCC1
3. Cc1cnn(CC2CCCN2C(=O)CCCc2nc(C)no2)c1 (centres undefined)
4. Cn1cnc(S(=O)(=O)NCCN2CCCCCC2=O)c1Cl
5. O=C(c1ccc2c(c1)OCO2)N1CCCC(n2cccn2)C1 (centres undefined)
6. CC(=O)Nc1nc(C(=O)N2CCCC(n3nc(C)cc3C)C2)cs1 (centres undefined)
7. CN(C)C(=O)[C@@H]1CCO[C@@H]2CCN(Cc3ccccc3)C[C@@H]21
8. Cc1cc(-c2cnc(N3CCNC(=O)C3)nc2-c2ccc(C)o2)on1

-- reply
1. 15
2. 14.2
3. 4.89
4. 0.721
5. 3.24
6. -7.02
7. 20.5
8. 11.4

Hey, can you go through the list below and give me Percent Effect for every item?
1. CC(=O)NCCC1CCCCN1S(=O)(=O)c1cccc(C#N)c1 (centres undefined)
2. COCCC(=O)N1CCC2(COCc3cnc(N4CCOCC4)nc32)C1 (centres undefined)
3. N#Cc1ccc(CNCC2CCN(CCO)CC2)cc1
4. c1ccc(-c2nccc(CNCC3CCCN3c3cccnn3)n2)cc1 (centres undefined)

-- reply
[13.6, 8.02, 9.58, -0.501]

The molecule "Nc1cc2c(nn1)CCN(C(=O)c1cccc3c1OCCO3)C2" showed Percent Effect equal to 4.05
